target: T1, Recombinant human CD8ab protein (extracellular domains of CD8a and CD8b with leucine zippers and tags) (human, UniProt P01732 22-182; P10966 22-170); assay: SPR (Biacore T200, 37 C), antibody captured by anti-human IgG Fc, soluble CD8ab as analyte, 1:1 model
T1 construct: extracellular domain; Secreted from HEK293 cells; also called recombinant CD8ab; soluble CD8ab antigen; not shown: acidic leucine zipper; 8x Histidine tag; basic leucine zipper; Strep-tag II
T1 sequence (P01732 22-182, chain 1 of 2): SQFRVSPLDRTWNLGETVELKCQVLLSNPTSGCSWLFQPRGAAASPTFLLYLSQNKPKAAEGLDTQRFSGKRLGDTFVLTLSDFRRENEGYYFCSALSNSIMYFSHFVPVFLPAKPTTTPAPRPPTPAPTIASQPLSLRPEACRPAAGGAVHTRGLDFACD
T1 sequence (P10966 22-170, chain 2 of 2): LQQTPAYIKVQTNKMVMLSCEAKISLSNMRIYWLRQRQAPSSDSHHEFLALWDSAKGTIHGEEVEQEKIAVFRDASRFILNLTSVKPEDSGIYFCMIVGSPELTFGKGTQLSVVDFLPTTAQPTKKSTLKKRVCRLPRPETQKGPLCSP
Binary call on kon: Yes from 500000 M⁻¹ s⁻¹ upward, No beneath that.

The examples below pair each entry with its known result.
[[record]]
binder = "xhCD8v3 (antibody, human IgG1, V domains shown) VH: QVQLVQSGAEVKKPGSSVKVSCKASGSRFYKFAISWVRQAPGQGLEWMGGIIPGHAKANYAQKFQGRVTITADESTSTAYMELSSLRSEDTAVYYCARDGLGIRLFADWGQGTLVTVSS VL: DIQMTQSPSSLSASVGDRVTITCRASQEIYGALNWYQQKPGKAPKLLIYGATNLQSGVPSRFSGSGSGTDFTLTISSLQPEDFATYYCQDIYDAPWTFGGGTKVEIK"
category = "Yes"

[[record]]
binder = "xhCD8v4 (antibody, human IgG1, V domains shown) VH: QVQLVQSGAEVKKPGSSVKVSCKASGYTFTKYAISWVRQAPGQGLEWMGGIIPGHAKANYAQKFQGRVTITADESTSTAYMELSSLRSEDTAVYYCARDGLGIRLFADWGQGTLVTVSS VL: DIQMTQSPSSLSASVGDRVTITCRASQKIYGALNWYQQKPGKAPKLLIYGATNLQSGVPSRFSGSGSGTDFTLTISSLQPEDFATYYCQNTYDTPWTFGGGTKVEIK"
category = "No"

[[record]]
binder = "xhCD8v1 (antibody, V domains shown, Mouse monoclonal antibody against CD8b; also called mouse monoclonal antibody xhCD8v1; xCD8v1) VH: QVHLQQSGPELVKPGASVKMSCKTSGYTFTKYTMHWVKQGHEESLEWIGHFNPNNDETKYNQKFTGKATLTVDKSSTTAYMELRSLTSDDSALYYCARDGLGLRLFADWGQGTLITVSA VL: DIQMTQSPASLSASVGETVTITCGASENIYGALNWYQRKQGKSPQLLIFGATNLADGVSSRFSGSGSDRQYSLKISSLHPDDVATYYCQNILDTPWTFGGGTKLEIK"
category = "Yes"

[[record]]
binder = "xhCD8v7 (antibody, human IgG1, V domains shown) VH: EVQLVESGGGLVQPGRSLRLSCAASGFTFDDYAMHWVRQAPGKGLEWVAVISYDGSNKYYADSVKGRFTISRDNSKNTLYLQMNSLRAEDTAVYYCAKDRIGWYDYDAFDIWGQGTMVTVSS VL: EIVLTQSPATLSVTPGEGATLSCRASHSVGSNLAWYQQKPGQAPRLLIYDASNRATGIPARFSGSGSGTDFTLTISSLEPEDLAVYYCQQRSNWPPTFGQGTRLEIK"
category = "Yes"

[[record]]
binder = "xhCD8v2 (antibody, human IgG1, V domains shown) VH: QVQLVQSGAEVKKPGSSVKVSCKASGYRFHNFAISWVRQAPGQGLEWMGGIIPGHAKANYAQKFQGRVTITADESTSTAYMELSSLRSEDTAVYYCARDGLGIRLFADWGQGTLVTVSS VL: DIQMTQSPSSLSASVGDRVTITCRASQEIYGALNWYQQKPGKAPKLLIYGATNLQSGVPSRFSGSGSGTDFTLTISSLQPEDFATYYCQDIYDAPWTFGGGTKVEIK"
category = "No"


Now, please, on to the next binder.
Q: Does the binder xhCD8v5 (antibody, human IgG1, V domains shown) VH: QVQLVQSGAEVKKPGSSVKVSCKASGSGFRGHAISWVRQAPGQGLEWMGGIIPGHAKANYAQKFQGRVTITADESTSTAYMELSSLRSEDTAVYYCARDGLGIRLFADWGQGTLVTVSS VL: DIQMTQSPSSLSASVGDRVTITCRASQKIYGALNWYQQKPGKAPKLLIYGATNLQSGVPSRFSGSGSGTDFTLTISSLQPEDFATYYCQNTYDTPWTFGGGTKVEIK have recorded kon that is 500000 M⁻¹ s⁻¹ or more?
Ans: No
